// provenance: patent US10004701B2

- System: A. baumannii strain 98-37-09
- measurement description: AK assay 384-well format, Prestwick library screening
- Format: cell-based, Acinetobacter baumannii
- condition label: Acinetobacter baumannii, 983709, 3 h; 50 μM final drug concentration; planktonic; cutoff for positive-scoring molecules 3-fold increase; read-out: AK-based Prestwick Library Screening Results, A. baumannii (fold increase in extracellular AK activity)
Where a name gives a salt, the structure may show the parent alone.
Recorded measurements of fold induction at 50 µM, one per entry
endpoint name: fold induction at 50 µM

[
  {
    "compound": "COc1ccc2cc(CCC(C)=O)ccc2c1 [Nabumetone]",
    "quantitative result": 0.4
  },
  {
    "compound": "Cc1nnc(NS(=O)(=O)c2ccc(N)cc2)s1 [Sulfamethizole]",
    "quantitative result": 1.4
  },
  {
    "compound": "COc1cc2nc(N3CCN(C(=O)C4CCCO4)CC3)nc(N)c2cc1OC (stereo not drawn) [Terazosin hydrochloride]",
    "quantitative result": 0.7
  },
  {
    "compound": "CC(=O)OC(C)C[N+](C)(C)C (stereo not drawn) [Methacholine chloride]",
    "quantitative result": 0.8
  },
  {
    "compound": "NC(=NCc1ccccc1)NC(=O)c1nc(Cl)c(N)nc1N [Benzamil hydrochloride]",
    "quantitative result": 0.6
  },
  {
    "compound": "NS(=O)(=O)c1cc(Cl)c(Cl)c(S(N)(=O)=O)c1 [Dichlorphenamide]",
    "quantitative result": 0.5
  },
  {
    "compound": "Nc1ccc(/N=N/c2ccccc2)c(N)n1 [Phenazopyridine hydrochloride]",
    "quantitative result": 0.1
  },
  {
    "compound": "CCN1CCN(C(=O)N[C@@H](C(=O)N[C@@H]2C(=O)N3[C@@H]2SC(C)(C)[C@@H]3C(=O)O)c2ccccc2)C(=O)C1=O [Piperacillin sodium salt]",
    "quantitative result": 3.3
  },
  {
    "compound": "COc1c2ccoc2nc2c(OC)c(OCC(O)C(C)(C)O)ccc12 (stereo not drawn) [Evoxine]",
    "quantitative result": 0.7
  }
]
